IC50 overview
- System: TNF-α
- Procedure summary: In vitro test of cytokine release: LPS-stimulated human whole blood / PBMCs, TNFα by ELISA
- Assay type: cell-based
- Study conditions: Homo sapiens; Table 2; LPS (E.coli 026:B6) stimulation 4 hours; table does not say whole blood or PBMCs

{"columns": ["Compound", "IC50 [µM]"],
 "data": [
  ["CSc1nc(-c2ccc(F)cc2)c(-c2ccnc(NCc3ccccc3)c2)n1C [Example 70]", 0.39],
  ["CCNc1cc(-c2c(-c3ccc(F)cc3)nc(SC)n2C)ccn1 [Example 73]", 0.35],
  ["CSc1nc(-c2ccc(F)cc2)c(-c2ccnc(N)c2)n1C [Example 66]", 2.3],
  ["CCCn1c(SC)nc(-c2ccc(F)cc2)c1-c1ccnc(NCC)c1 [Example 74]", 0.41],
  ["CSc1nc(-c2ccc(F)cc2)c(-c2ccnc(NC(C)=O)c2)n1C1CC(C)(C)NC(C)(C)C1 [Example 63]", 4.5],
  ["CSc1nc(-c2ccc(F)cc2)c(-c2ccnc(NC(C)=O)c2)n1C [Example 61]", 0.87],
  ["COc1ccc(C(=O)Nc2cc(-c3c(-c4ccc(F)cc4)nc(SC)n3C)ccn2)cc1 [Example 67]", 0.64],
  ["CCNc1cc(-c2c(-c3ccc(F)cc3)nc(SC)n2C2CC(C)(C)NC(C)(C)C2)ccn1 [Example 75]", 2.9],
  ["CCCn1c(SC)nc(-c2ccc(F)cc2)c1-c1ccnc(NC(C)=O)c1 [Example 62]", 0.49]
]}

Where these numbers come from: patent US7253191B2
